// data source = the supplement of paper PMC11908140

B1: library; numbered along this chain (parent)
chain: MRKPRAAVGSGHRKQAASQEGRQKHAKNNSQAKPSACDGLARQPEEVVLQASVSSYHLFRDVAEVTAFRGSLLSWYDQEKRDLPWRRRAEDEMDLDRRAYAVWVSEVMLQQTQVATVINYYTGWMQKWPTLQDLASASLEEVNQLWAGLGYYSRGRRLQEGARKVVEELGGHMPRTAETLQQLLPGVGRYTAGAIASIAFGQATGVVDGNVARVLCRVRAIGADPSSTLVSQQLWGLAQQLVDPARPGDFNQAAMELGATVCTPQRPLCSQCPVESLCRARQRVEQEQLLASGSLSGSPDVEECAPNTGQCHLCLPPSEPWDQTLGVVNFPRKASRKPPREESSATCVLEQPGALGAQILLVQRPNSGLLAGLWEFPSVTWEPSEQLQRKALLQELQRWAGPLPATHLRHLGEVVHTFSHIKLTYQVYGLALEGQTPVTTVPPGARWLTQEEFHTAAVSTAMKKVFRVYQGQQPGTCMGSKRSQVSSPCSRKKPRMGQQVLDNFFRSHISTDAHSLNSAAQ

variants of: B1; assay: 8OG:A repair function score (normalized; synonymous = 0, nonsense = -1) (normalized log-likelihood score); higher = more repair activity (WT-like); conditions: with 8OG:A DNA repair reporter (GFP) in HEK-293 MUTYH KO cells;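 also: cells sorted at 72 h after reporter transfection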
For each of the variants below, state its 8OG:A repair function score.
Give the figure only, with no unit attached.

## Task What measured 8OG:A repair function score goes with L430F ?
## Result 0.0205

## Task Query R491H next
## Result 0.0282

## Task Query E350N next
## Result -0.112

## Task Query G170M next
## Result -0.0605

## Task Query H454W next
## Result 0.536

## Task Query I118V next
## Result 0.00363

## Task Query F418K next
## Result -0.75

## Task Query E141I next
## Result -0.599

## Task Query L257V next
## Result -0.182

## Task Query Q233I next
## Result 0.198

## Task Query S318P next
## Result -0.26

## Task Query L184P next
## Result -1.21

## Task Query Y121T next
## Result -1.25

## Task Query V117K next
## Result -1.84

## Task Query S419G next
## Result -0.522

## Task Query L360K next
## Result -1.23

## Task Query A253L next
## Result -1.02

## Task Query A135M next
## Result -0.467

## Task Query P84F next
## Result -0.723

## Task Query R2V next
## Result 0.0618

## Task Query P331M next
## Result -0.254

## Task Query T380L next
## Result -0.0431

## Task Query M125R next
## Result -0.877

## Task Query P316R next
## Result -0.109

## Task Query A259S next
## Result -0.0739

## Task Query E285R next
## Result 0.00385

## Task Query D300W next
## Result -0.16

## Task Query Q132F next
## Result -0.327

## Task Query P442S next
## Result 0.00212

## Task Query A519D next
## Result 0.0164

## Task Query Q358Y next
## Result -0.283

## Task Query G222M next
## Result -0.381

## Task Query S367V next
## Result 0.0128

## Task Query A291P next
## Result -0.0656

## Task Query V114N next
## Result -0.367

## Task Query E385D next
## Result 0.0907

## Task Query V327F next
## Result -0.513

## Task Query T424L next
## Result -0.165

## Task Query R409V next
## Result 0.0575

## Task Query V327R next
## Result -0.583

## Task Query N251F next
## Result -1.03

## Task Query P442Y next
## Result -0.28

## Task Query E285G next
## Result -0.0139

## Task Query P273Q next
## Result -0.798

## Task Query A203N next
## Result -0.000873

## Task Query R189E next
## Result -0.385
